B1: OR4K15 (parent)
chain: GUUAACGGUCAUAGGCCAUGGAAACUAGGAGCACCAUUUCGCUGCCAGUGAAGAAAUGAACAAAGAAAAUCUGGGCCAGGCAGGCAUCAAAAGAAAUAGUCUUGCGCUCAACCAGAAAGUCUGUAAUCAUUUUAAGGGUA

variants of: B1; assay: self-cleavage, relative activity (ratio to wild type); higher = more cleavage; in vitro, sequencing; the parent is a self-cleaving ribozyme
reported.property: self-cleavage

mutation_spec="A62G U132G" reported_property=self-cleavage result_number=0.5
mutation_spec="A11G U131C" reported_property=self-cleavage result_number=0.79
mutation_spec="A24C A30U" reported_property=self-cleavage result_number=0.99
mutation_spec="A54G A92G" reported_property=self-cleavage result_number=1.37
mutation_spec="G7A G44U" reported_property=self-cleavage result_number=1.28
mutation_spec="A23G U102C" reported_property=self-cleavage result_number=1.87
mutation_spec="U9A A89U" reported_property=self-cleavage result_number=0.66
mutation_spec="A78G A118G" reported_property=self-cleavage result_number=0.29
mutation_spec="A90U U122C" reported_property=self-cleavage result_number=2.2
mutation_spec="G29U A91G" reported_property=self-cleavage result_number=1.67
mutation_spec="U38C A54G" reported_property=self-cleavage result_number=1.17
